Details: buffer; pH 7.4; 200.0 µM
recorded-metric: solubility kinetic

• Cl.N=C(c1cccc([N+](=O)[O-])c1)N1CCCCCC1 = > 42.6 µg/mL
• Cl.O=C(NN1C(=O)CSC1=S)c1cccnc1 = > 43.5 µg/mL
• O=C1ON=C(c2ccccc2)/C1=C/c1ccc(O)cc1 = > 39.8 µg/mL

---

Conditions: buffer; pH 7.4; 200.0 µM
recorded-metric: solubility kinetic

• O=C1CSc2ccc(C(=O)O)cc2N1 = > 0.0314 mg/mL
• CCOC(=O)Cn1nc(C)c([N+](=O)[O-])c1C = > 0.0341 mg/mL
• O=C(CSc1ccccn1)N1CCNC1=O = > 0.0356 mg/mL

FYI, the data here is from PubChem BioAssay AID1996.
